Assign MIC to each entry below.
system: S. aureus GC 6469; assay: MIC, broth microdilution; settings: Staphylococcus aureus, GC6469, read-out: MINIMAL INHIBITORY CONCENTRATION MIC, pre-incubated in Water
All answers are understood in µg/mL, so give the number only.

Prompt: Give its MIC value. Item: CCCCN(CC(=O)Nc1cc(N(C)C)c2c(c1O)C(=O)C1=C(O)[C@]3(O)C(=O)C(C(N)=O)=C(O)[C@@H](N(C)C)[C@@H]3C[C@@H]1C2)C(=O)OCOC(=O)c1cccs1
Response: 4

Prompt: Give its MIC value. Item: CC(C)C(=O)OCOC(=O)N(CC(=O)Nc1cc(N(C)C)c2c(c1O)C(=O)C1=C(O)[C@]3(O)C(=O)C(C(N)=O)=C(O)[C@@H](N(C)C)[C@@H]3C[C@@H]1C2)C(C)(C)C
Response: 1

# credit: patent US20070049564A1
